B1: TPR 5TU (parent)
chain: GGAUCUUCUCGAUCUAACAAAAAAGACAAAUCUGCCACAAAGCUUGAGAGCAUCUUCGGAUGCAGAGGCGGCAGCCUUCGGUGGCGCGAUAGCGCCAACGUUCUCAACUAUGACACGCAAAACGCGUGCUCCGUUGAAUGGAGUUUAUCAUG

# Variants of: B1
# PROTOCOL TEXT: polymerase ribozyme fitness, log enrichment relative to wild type (log ratio); higher = more active; in vitro selection for triplet polymerase activity
This sample holds only a part of the variants without activity.
ENDPOINT LABEL: polymerase ribozyme fitness (log ratio)

C87G U104G; ≤ -4.2
U33G A41U G46C C54G G62C G70U C96A A120G G124U; ≤ -4.2
U82G A89U A91U A98U G100C; ≤ -4.2
A26U C43A A49G G58C C93U G112A; ≤ -4.2
G88A G94A C99G C103G U104A A107G; ≤ -4.2
A24C C32U A49C C85G G86A A91G C123G C132A; ≤ -4.2
A29U A49C C63U C116U G133C U139A U146A; ≤ -4.2
U44A U55A C63G C85U C87G G92U; ≤ -4.2
U4C A12U C57G C85U A98G G128U; ≤ -4.2
G59A C93U A98U A138C; ≤ -4.2
A52U C93A U139G; ≤ -4.2
A52G G88A C118A C123U G141C; ≤ -4.2
C5A C8G A21U C54G C57U G58A C69A G81A A115U G133C G143U; ≤ -4.2
A3U A20U A41G A49G A64U C108G; ≤ -4.2
A12G G92A U127A U139A G143A; ≤ -4.2
A91U C99G; ≤ -4.2
A23C A29C C38U C57G A64C G84U; ≤ -4.2
G83C C93U C96A; -1.71
A52G U82A; -0.467
A40U U61G C69U; -1.67
C10A A12U A41G C96A A107C C114A; ≤ -4.2
U55G U145A; -0.604

Where these numbers come from: the RNAGym collection of RNA variant scans (doi:10.1073/pnas.2313332121)
